Study system: T1, SARS-CoV-2 스파이크 S1-mFc (SARS-CoV-2, UniProt P0DTC2 16-685)
T1 construct: range 16-685
Assay: competition ELISA: S1-mFc on coated ACE2-His
What pIC50 was measured for each of the following?
Numbers only, as −log10 of the molar value.

// known answers, use as guide
Binder: SA4086 (antibody, V domains shown) VH: QVQLVESGGGVVQPGRSLRLSCAASGFTFSSYAMHWVRQAPGKGLEWVAVISYDGSNKYYADSAKGRFTISRDNSKNTLYLQMNSLRAEDTAVYYCARRGHYYDSSGYLYWGHGTLITVSS VL: DIQMTQSPSSLSASVGDRVTITCRASQSISTYLSWYQQKPGKAPKLLIYAASNLQSGVPSRFSASGSGTDFTLTISSLQPEDFATYYCQQSYNTPRTFGQGTKVEIK
pIC50: 8.89
--
Binder: SA4118 (antibody, V domains shown) VH: QVQLVESGAEVKKPGASVRVSCKISGYIFTELSIHWVRQAPGKGLEWMGGFDPEEGKTIYAQKFQGRVTMTEDTSTDTAYMELSSLRSEDTAVYYCAKIGHLGDFWYWGQGTLITVSS VL: QSALTQPASVSGSPGQSITISCTGTTSDIGSYDYVSWYQQHPGKAPKLIIYGVTRRPSGVSNRFSGSKSGNTASLTISGLQAEDEANYYCSSCTRSSTYVFGTGTKVTVL
pIC50: 8.64

GET /value?item= SA3779 (antibody, V domains shown) VH: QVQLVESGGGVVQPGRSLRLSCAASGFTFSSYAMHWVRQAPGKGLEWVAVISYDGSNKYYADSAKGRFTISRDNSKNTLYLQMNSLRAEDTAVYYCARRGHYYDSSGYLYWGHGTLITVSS VL: DIQMTQSPSSLSASVGDRVTITCRASQRIATYLHWYQQKPGRAPKLLIYAASSLQTGVPSRFSGSGSGTDFTLTINSLQPEDFATYYCQQSYAIPYTFGQGTKLEIK &field=pIC50 returns 8.44

Cited source for all entries: patent KR20220054080A
